Hi there, I'd appreciate the recorded pKd for every entry that follows.
Target: Calcium-dependent protein kinase 1 (Plasmodium falciparum)
Sequence (P62344 whole entry): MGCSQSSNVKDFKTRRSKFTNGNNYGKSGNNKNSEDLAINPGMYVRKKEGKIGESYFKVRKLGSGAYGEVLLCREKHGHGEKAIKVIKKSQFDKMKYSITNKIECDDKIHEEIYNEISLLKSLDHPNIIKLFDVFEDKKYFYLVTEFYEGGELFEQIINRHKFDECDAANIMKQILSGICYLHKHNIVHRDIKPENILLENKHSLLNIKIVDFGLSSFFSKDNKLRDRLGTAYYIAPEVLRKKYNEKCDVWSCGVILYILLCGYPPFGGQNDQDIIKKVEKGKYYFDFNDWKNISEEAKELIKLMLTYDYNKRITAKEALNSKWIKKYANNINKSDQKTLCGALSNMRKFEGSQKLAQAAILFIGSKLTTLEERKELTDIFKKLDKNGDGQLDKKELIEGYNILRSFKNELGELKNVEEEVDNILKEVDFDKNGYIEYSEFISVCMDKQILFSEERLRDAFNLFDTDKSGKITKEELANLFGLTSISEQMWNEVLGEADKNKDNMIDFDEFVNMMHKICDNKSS
Assay: Binding affinity to CDPK1 in Plasmodium falciparum 3D7 blood stage extract incubated for 1 hr in presence of ATP-competitive kinase inhibitor by kinobeads based pull down assay
Settings: read-out: Kd(app)
Scale: negative log10 of molar concentration, which is what pKd denotes.

Query: Form field: reported pKd of "Cc1cc(Nc2nccc(-c3sc(C4CCNCC4)nc3-c3ccc(F)cc3)n2)ccn1"
Reply: 7.30

Query: Form field: reported pKd of "Fc1ccc(-c2nc(C3CCNCC3)sc2-c2ccnc(NCCN3CCSCC3)n2)cc1"
Reply: 5.68

* * *

Assay: Permeability of compound by PAMPA
VALUE TYPE: Papp (nm/s)
Quick note: give the figure in nm/s, leave out the unit.

Query: Form field: reported Papp of "c1cc(Nc2nccc(-c3sc(C4CCNCC4)nc3C3CC3)n2)ncn1"
Reply: 180

Query: Form field: reported Papp of "Fc1ccc(-c2nc(C3CCNCC3)sc2-c2ccnc(N3CCC(N4CCC4)CC3)n2)cc1"
Reply: 72

Query: Form field: reported Papp of "Cc1cc(Nc2nccc(-c3sc(C4CCNCC4)nc3C3CC3)n2)ccn1"
Reply: 180

Query: Form field: reported Papp of "Cc1cc(Nc2nccc(-c3sc(C4CCNCC4)nc3-c3ccc(F)cc3)n2)ccn1"
Reply: 210

Query: Form field: reported Papp of "Fc1ccc(-c2nc(C3CCNCC3)sc2-c2ccnc(N3CCC(CN4CCOCC4)CC3)n2)cc1"
Reply: 380

Query: Form field: reported Papp of "O=S(=O)(Nc1nc(-c2ccc(F)cc2)c(-c2ccnc(Nc3ccc(N4CCNCC4)cc3)n2)s1)C1CCNCC1"
Reply: 30

Query: Form field: reported Papp of "Fc1ccc(-c2nc(N3CCOCC3)sc2-c2ccnc(Nc3ccc(N4CCNCC4)cc3)n2)cc1"
Reply: 280

Query: Form field: reported Papp of "Nc1nc(-c2ccc(F)cc2)c(-c2ccnc(Nc3ccc(N4CCOCC4)cc3)n2)s1"
Reply: 30

Query: Form field: reported Papp of "Fc1ccc(-c2nc(C3CCNCC3)sc2-c2ccnc(NCCN3CCCC3)n2)cc1"
Reply: 10

Query: Form field: reported Papp of "CN1CCN(c2ccc(Nc3nccc(-c4sc(N)nc4-c4ccc(F)cc4)n3)cc2)CC1"
Reply: 260

Query: Form field: reported Papp of "O[C@H]1CC[C@H](Nc2nccc(-c3sc(C4CCNCC4)nc3-c3ccc(F)cc3)n2)CC1"
Reply: 55

Query: Form field: reported Papp of "Fc1ccc(-c2nc(C3CCNCC3)sc2-c2ccnc(Nc3ccccn3)n2)cc1"
Reply: 330

Query: Form field: reported Papp of "Cc1csc(Nc2nccc(-c3sc(C4CCNCC4)nc3-c3ccc(F)cc3)n2)n1"
Reply: 150

Query: Form field: reported Papp of "COc1cc(Nc2nccc(-c3sc(C4CCNCC4)nc3-c3ccc(F)cc3)n2)cc(C)n1"
Reply: 190

Query: Form field: reported Papp of "Cc1cc(Nc2nccc(-c3sc(C4CCNCC4)nc3-c3ccc(F)cc3)n2)on1"
Reply: 120

Query: Form field: reported Papp of "Cc1cc(Nc2nccc(-c3sc(C4CCNCC4)nc3-c3ccc(F)cc3)n2)nn1C"
Reply: 200

Query: Form field: reported Papp of OC1CCN(c2nccc(-c3sc(C4CCNCC4)nc3-c3ccc(F)cc3)n2)C1 (configuration not stated)
Reply: 65

Query: Form field: reported Papp of "CN1CCC(c2nc(-c3ccc(F)c(NS(C)(=O)=O)c3)c(-c3ccnc(NCC4CC4)n3)s2)CC1"
Reply: 340

Query: Form field: reported Papp of "Fc1ccc(-c2nc(C3CCNCC3)sc2-c2ccnc(NCCN3CCOCC3)n2)cc1"
Reply: 170

Query: Form field: reported Papp of "CCOC(=O)N1CCC(c2nc(-c3ccc(F)cc3)c(-c3ccnc(Nc4ccc(N5CCN(C)CC5)cc4)n3)s2)CC1"
Reply: 410

Query: Form field: reported Papp of "Fc1ccc(-c2nc(N3CCCC3)sc2-c2ccnc(Nc3ccc(N4CCNCC4)cc3)n2)cc1"
Reply: 270

Query: Form field: reported Papp of Fc1ccc(-c2nc(C3CCNCC3)sc2-c2ccnc(NCC3CCCO3)n2)cc1 (configuration not stated)
Reply: 320

Query: Form field: reported Papp of "Fc1ccc(-c2nc(C3CCNCC3)sc2-c2ccnc(Nc3cnccn3)n2)cc1"
Reply: 160

Query: Form field: reported Papp of "Fc1ccc(-c2nc(C3CCNCC3)sc2-c2ccnc(Nc3cccnn3)n2)cc1"
Reply: 190

Query: Form field: reported Papp of "Nc1nccc(-c2sc(C3CCNCC3)nc2-c2ccc(F)cc2)n1"
Reply: 130

Query: Form field: reported Papp of "COCCNc1nccc(-c2sc(C3CCNCC3)nc2-c2ccc(F)cc2)n1"
Reply: 300

Entry source: ChEMBL document CHEMBL4414601
